assay: In vitro EDTA challenge study; assay type: physicochemical; conditions: EDTA 500-fold, pH 7.0, 37 C, 1 h

{"columns": ["Compound", "Value Unit", "% Intact of 89Zr-complexes"],
 "data": [
  ["CC(=O)N1CCCCCNC(=O)CCC(=O)N2CCCCCNC(=O)CCC(=O)N(CCCCCN)[O][89Zr+]([O]1)[O]2 [89Zr-DFO, reference compound]", "%", 81.1],
  ["NC(=O)CN1CCN(CC(N)=O)CCN(CC(N)=O)CCN(CC(N)=O)CC1.[89Zr+4] [89Zr-DOTAM]", "%", 98.5],
  ["O=C1CN2CCN3CCN4CCN(CC2)CC(=O)[O][89Zr]([O]1)([O]C(=O)C3)[O]C(=O)C4 [89Zr-DOTA]", "%", 100],
  ["O=P1(O)CN2CCN3CCN4CCN(CC2)CP(=O)(O)[O][89Zr]([O]1)([O]P(=O)(O)C3)[O]P(=O)(O)C4 [89Zr-DOTP]", "%", 99.5]
]}

* * *

# % Intact of 89Zr-complexes listing for each entry below
assay: In vitro EDTA challenge study; format: physicochemical; settings: EDTA 1000-fold, pH 5.0, 37 C, 1 h
Quantity Name: % Intact of 89Zr-complexes (%)

{"columns": ["Compound", "Quantity Name", "Reported Measurement"],
 "data": [
  ["O=P1(O)CN2CCN3CCN4CCN(CC2)CP(=O)(O)[O][89Zr]([O]1)([O]P(=O)(O)C3)[O]P(=O)(O)C4 [89Zr-DOTP]", "% Intact of 89Zr-complexes", 96.3],
  ["O=C1CN2CCN3CCN4CCN(CC2)CC(=O)[O][89Zr]([O]1)([O]C(=O)C3)[O]C(=O)C4 [89Zr-DOTA]", "% Intact of 89Zr-complexes", 100],
  ["NC(=O)CN1CCN(CC(N)=O)CCN(CC(N)=O)CCN(CC(N)=O)CC1.[89Zr+4] [89Zr-DOTAM]", "% Intact of 89Zr-complexes", 96.5],
  ["CC(=O)N1CCCCCNC(=O)CCC(=O)N2CCCCCNC(=O)CCC(=O)N(CCCCCN)[O][89Zr+]([O]1)[O]2 [89Zr-DFO, reference compound]", "% Intact of 89Zr-complexes", 14.6]
]}

* * *

assay: In vitro metal competition study; assay type: physicochemical; details: Zn2+, PBS pH 7.4, 37 C, 7 d
Quantity Name: % Intact of 89Zr-complexes (%)

{"columns": ["Compound", "Quantity Name", "Reported Measurement"],
 "data": [
  ["NC(=O)CN1CCN(CC(N)=O)CCN(CC(N)=O)CCN(CC(N)=O)CC1.[89Zr+4] [89Zr-DOTAM]", "% Intact of 89Zr-complexes", 57.0],
  ["O=C1CN2CCN3CCN4CCN(CC2)CC(=O)[O][89Zr]([O]1)([O]C(=O)C3)[O]C(=O)C4 [89Zr-DOTA]", "% Intact of 89Zr-complexes", 100],
  ["CC(=O)N1CCCCCNC(=O)CCC(=O)N2CCCCCNC(=O)CCC(=O)N(CCCCCN)[O][89Zr+]([O]1)[O]2 [89Zr-DFO, reference compound]", "% Intact of 89Zr-complexes", 95.9],
  ["O=P1(O)CN2CCN3CCN4CCN(CC2)CP(=O)(O)[O][89Zr]([O]1)([O]P(=O)(O)C3)[O]P(=O)(O)C4 [89Zr-DOTP]", "% Intact of 89Zr-complexes", 84.7]
]}

* * *

Experiment: In vitro metal competition study
Type: physicochemical
Conditions: Cu2+, PBS pH 7.4, 37 C, 4 d
Protocol: In vitro Metal Competition study. To a solution of metal cations [iron (III) chloride, cobalt (II) chloride, zinc (II) chloride, copper (II) chloride, magnesium (II) chloride, gallium (III) nitrate, gadolinium (III) chloride] (1 mM, 200 µL), was added 89Zr-labeled complex (0.1 mM, 10 µL, 80 μCi, 2.96 MBq) in PBS, pH 7.4. […] Dissociation of 89Zr from 89Zr-complexes was monitored by radio-TLC at 2 h, 1 d, 4 d and 7 d time point. […]
Measured % Intact of 89Zr-complexes, listed per entry.

{"columns": ["Compound", "% Intact of 89Zr-complexes / %"],
 "data": [
  ["CC(=O)N1CCCCCNC(=O)CCC(=O)N2CCCCCNC(=O)CCC(=O)N(CCCCCN)[O][89Zr+]([O]1)[O]2 [89Zr-DFO, reference compound]", 97.3],
  ["O=P1(O)CN2CCN3CCN4CCN(CC2)CP(=O)(O)[O][89Zr]([O]1)([O]P(=O)(O)C3)[O]P(=O)(O)C4 [89Zr-DOTP]", 97.5],
  ["NC(=O)CN1CCN(CC(N)=O)CCN(CC(N)=O)CCN(CC(N)=O)CC1.[89Zr+4] [89Zr-DOTAM]", 80.5],
  ["O=C1CN2CCN3CCN4CCN(CC2)CC(=O)[O][89Zr]([O]1)([O]C(=O)C3)[O]C(=O)C4 [89Zr-DOTA]", 100]
]}

* * *

test: In vitro metal competition study; format: physicochemical; details: Fe3+, PBS pH 7.4, 37 C, 2 h
Quantity Name: % Intact of 89Zr-complexes (%)

{"columns": ["Molecule", "Quantity Name", "Reported Measurement"],
 "data": [
  ["CC(=O)N1CCCCCNC(=O)CCC(=O)N2CCCCCNC(=O)CCC(=O)N(CCCCCN)[O][89Zr+]([O]1)[O]2 [89Zr-DFO, reference compound]", "% Intact of 89Zr-complexes", 96.5],
  ["O=C1CN2CCN3CCN4CCN(CC2)CC(=O)[O][89Zr]([O]1)([O]C(=O)C3)[O]C(=O)C4 [89Zr-DOTA]", "% Intact of 89Zr-complexes", 100],
  ["NC(=O)CN1CCN(CC(N)=O)CCN(CC(N)=O)CCN(CC(N)=O)CC1.[89Zr+4] [89Zr-DOTAM]", "% Intact of 89Zr-complexes", 92.4],
  ["O=P1(O)CN2CCN3CCN4CCN(CC2)CP(=O)(O)[O][89Zr]([O]1)([O]P(=O)(O)C3)[O]P(=O)(O)C4 [89Zr-DOTP]", "% Intact of 89Zr-complexes", 99.3]
]}

* * *

assay: In vitro serum stability (radio-ITLC); type: in vitro ADME; details: 37 C, after 7 days
Quantity Name: Radio-ITLC peak of complex in human serum

{"columns": ["Compound", "Reported Measurement"],
 "data": [
  ["NC(=O)CN1CCN(CC(N)=O)CCN(CC(N)=O)CCN(CC(N)=O)CC1.[89Zr+4] [89Zr-DOTAM]", "99.2%"],
  ["O=C1CN2CCN3CCN4CCN(CC2)CC(=O)[O][89Zr]([O]1)([O]C(=O)C3)[O]C(=O)C4 [89Zr-DOTA]", "100%"],
  ["CC(=O)N1CCCCCNC(=O)CCC(=O)N2CCCCCNC(=O)CCC(=O)N(CCCCCN)[O][89Zr+]([O]1)[O]2 [89Zr-DFO, reference compound]", "100%"],
  ["O=P1(O)CN2CCN3CCN4CCN(CC2)CP(=O)(O)[O][89Zr]([O]1)([O]P(=O)(O)C3)[O]P(=O)(O)C4 [89Zr-DOTP]", "95.2%"]
]}

* * *

assay: In vitro metal competition study; format: physicochemical; conditions: Fe3+, PBS pH 7.4, 37 C, 4 d
# % Intact of 89Zr-complexes annotations
Quantity Name: % Intact of 89Zr-complexes (%)

{"columns": ["Compound", "Reported Measurement"],
 "data": [
  ["O=P1(O)CN2CCN3CCN4CCN(CC2)CP(=O)(O)[O][89Zr]([O]1)([O]P(=O)(O)C3)[O]P(=O)(O)C4 [89Zr-DOTP]", 89.5],
  ["O=C1CN2CCN3CCN4CCN(CC2)CC(=O)[O][89Zr]([O]1)([O]C(=O)C3)[O]C(=O)C4 [89Zr-DOTA]", 100],
  ["CC(=O)N1CCCCCNC(=O)CCC(=O)N2CCCCCNC(=O)CCC(=O)N(CCCCCN)[O][89Zr+]([O]1)[O]2 [89Zr-DFO, reference compound]", 53.2],
  ["NC(=O)CN1CCN(CC(N)=O)CCN(CC(N)=O)CCN(CC(N)=O)CC1.[89Zr+4] [89Zr-DOTAM]", 87.2]
]}

* * *

test: In vitro EDTA challenge study; type: physicochemical; conditions: EDTA 100-fold, pH 7.0, 37 C, 3 d
Reported % Intact of 89Zr-complexes values follow for various compounds

{"columns": ["Compound", "Value Unit", "% Intact of 89Zr-complexes"],
 "data": [
  ["O=P1(O)CN2CCN3CCN4CCN(CC2)CP(=O)(O)[O][89Zr]([O]1)([O]P(=O)(O)C3)[O]P(=O)(O)C4 [89Zr-DOTP]", "%", 96.8],
  ["CC(=O)N1CCCCCNC(=O)CCC(=O)N2CCCCCNC(=O)CCC(=O)N(CCCCCN)[O][89Zr+]([O]1)[O]2 [89Zr-DFO, reference compound]", "%", 87.2],
  ["NC(=O)CN1CCN(CC(N)=O)CCN(CC(N)=O)CCN(CC(N)=O)CC1.[89Zr+4] [89Zr-DOTAM]", "%", 86.1],
  ["O=C1CN2CCN3CCN4CCN(CC2)CC(=O)[O][89Zr]([O]1)([O]C(=O)C3)[O]C(=O)C4 [89Zr-DOTA]", "%", 100]
]}

// data source = paper PMC5363373
